Tested on: Alopecurus myosuroides (ALOMY)
Test name: Pre-emergence herbicidal activity, glasshouse pot test
Type: in vivo
Measurement conditions: Alopecurus myosuroides, 312 h; Rate 250 g/ha; pre-emergence spray; evaluated after 13 days; read-out: Pre-emergence activity ALOMY (100=total damage to plant; 0=no damage to plant)
Measurement name: pest or weed control at 250 g/ha (%)
Numeric only. Scale: %

Examples with answers:
Compound	Unit spec	Observed measurement
CCc1ccc(Oc2ncc(Cl)cc2C(F)(F)F)cc1C1=C(O)[C@@H]2CC[C@](C)(C1=O)C2(C)C	%	90
CCc1ccc(Oc2ccc(F)cc2)cc1C1=C(O)[C@H]2CC[C@H](C2)C1=O (single isomer, unassigned)	%	40

Q: What value of pest or weed control at 250 g/ha has been recorded for this entry: CCc1ccc(Oc2ccc(Cl)cc2[N+](=O)[O-])cc1C1=C(O)C(C)(C)OC(C)(C)C1=O
Ans: 0

###

System: Alopecurus myosuroides (ALOMY)
Test name: Post-emergence herbicidal activity, glasshouse pot test
Type: in vivo
Measurement conditions: Alopecurus myosuroides, 312 h, rate 250 g/ha, evaluated after 13 days, glasshouse, read-out: Post-emergence activity ALOMY (100=total damage to plant; 0=no damage to plant)
Quick reference: pest or weed control at 250 g/ha of the listed items.
Numeric only. Scale: %

Examples with answers:
Compound	Measurement name	Observed measurement
CCc1ccc(Oc2ccc(F)c(F)c2)cc1C1=C(O)C(C)(C)OC(C)(C)C1=O	pest or weed control at 250 g/ha	0
CCc1ccc(Oc2ccc([N+](=O)[O-])cc2C#N)cc1C1=C(O)C(C)(C)OC(C)(C)C1=O	pest or weed control at 250 g/ha	10
CCc1ccc(Oc2ccc(Cl)cc2F)cc1C1=C(O)[C@H]2CC[C@H](C2)C1=O (single isomer, unassigned)	pest or weed control at 250 g/ha	90
CCc1ccc(Oc2ncc(C(F)(F)F)cc2Cl)cc1C1=C(O)C(C)(C)OC(C)(C)C1=O	pest or weed control at 250 g/ha	100
CCc1ccc(Oc2cc(Cl)c3ccccc3n2)cc1C1=C(O)C(C)(C)OC(C)(C)C1=O	pest or weed control at 250 g/ha	80

Q: GET /values?readout=pest or weed control at 250 g/ha&system=Alopecurus myosuroides (ALOMY)&item= CCc1ccc(Oc2ccc([N+](=O)[O-])c(C(F)(F)F)c2)cc1C1=C(O)C(C)(C)OC(C)(C)C1=O
Ans: 70

Q: GET /values?readout=pest or weed control at 250 g/ha&system=Alopecurus myosuroides (ALOMY)&item= CCc1ccc(Oc2nc3ccccc3s2)cc1C1=C(O)[C@@H]2CC[C@](C)(C1=O)C2(C)C
Ans: 100

Q: GET /values?readout=pest or weed control at 250 g/ha&system=Alopecurus myosuroides (ALOMY)&item= CC1(C)OC(C)(C)C(O)=C(c2cc(Oc3ccc4cc(Cl)ccc4n3)ccc2C2CC2)C1=O
Ans: 100

Q: GET /values?readout=pest or weed control at 250 g/ha&system=Alopecurus myosuroides (ALOMY)&item= CCc1ccc(Oc2ccc(F)cc2)cc1C1=C(O)[C@@H]2CC[C@](C)(C1=O)C2(C)C
Ans: 20

Q: GET /values?readout=pest or weed control at 250 g/ha&system=Alopecurus myosuroides (ALOMY)&item= CCc1ccc(Oc2ccc(C#N)c(Cl)c2)cc1C1=C(O)C(C)(C)OC(C)(C)C1=O
Ans: 100

Q: GET /values?readout=pest or weed control at 250 g/ha&system=Alopecurus myosuroides (ALOMY)&item= CCc1ccc(Oc2c(F)ncc(Cl)c2F)cc1C1=C(O)C(C)(C)OC(C)(C)C1=O
Ans: 0

Q: GET /values?readout=pest or weed control at 250 g/ha&system=Alopecurus myosuroides (ALOMY)&item= CCc1ccc(Oc2ccc(Br)cc2Cl)cc1C1=C(O)[C@H]2CC[C@H](C2)C1=O
Ans: 60

Q: GET /values?readout=pest or weed control at 250 g/ha&system=Alopecurus myosuroides (ALOMY)&item= CCc1ccc(Oc2ncc(C(F)(F)F)cc2F)cc1C1=C(O)CC(C)(C)CC1=O
Ans: 100

Q: GET /values?readout=pest or weed control at 250 g/ha&system=Alopecurus myosuroides (ALOMY)&item= CCc1ccc(Oc2ccc(Cl)cc2OC)cc1C1=C(O)C(C)(C)OC(C)(C)C1=O
Ans: 0

Q: GET /values?readout=pest or weed control at 250 g/ha&system=Alopecurus myosuroides (ALOMY)&item= CCc1ccc(Oc2nc(C)c(Cl)c(N)n2)cc1C1=C(O)C(C)(C)OC(C)(C)C1=O
Ans: 50

Q: GET /values?readout=pest or weed control at 250 g/ha&system=Alopecurus myosuroides (ALOMY)&item= CCc1ccc(Oc2nnc3cc(Cl)ccc3n2)cc1C1=C(O)C(C)(C)OC(C)(C)C1=O
Ans: 10
